target: HLA B*07:02 (purified MHC class I) (Homo sapiens, UniProt P01889)
assay comment: In vitro radiolabeled competitive HLA binding assay
No end group written: not given here.
quantity name: pIC50
Notebook: values listed as pIC50 are -log10 of the concentration (mol/L).

Prompt line: State its pIC50 on HLA B*07:02 (purified MHC class I) (Homo sapiens, UniProt P01889): `HPALVFDIT`
Response line: 6.80

* * *

Below is a list of entries, each paired with its recorded pIC50 value.
target: HLA A*02:01 (purified MHC class I) (Homo sapiens, UniProt P04439, D140Y/D185E/D98H/E176V/E277Q/G131W/G231S/I119V/I121R/I166T/I218V/L300P/L318F/N151K/N90K/P208A/P217A/Q86G/Q94H/R138H/R169H/T345S)
assay comment: In vitro radiolabeled competitive HLA binding assay
No end group written: not given here.
Notebook: values listed as pIC50 are -log10 of the concentration (mol/L).

Prompt line: Would you mind telling me what pIC50 value was observed for `VLSDFKTWL` ?
Response line: 6.52

Prompt line: Would you mind telling me what pIC50 value was observed for `GVDPNIRTGV` ?
Response line: 6.45

Prompt line: Would you mind telling me what pIC50 value was observed for `FLVGQLFTF` ?
Response line: 7.17

Prompt line: Would you mind telling me what pIC50 value was observed for `RLWHYPCTV` ?
Response line: 7.92

Prompt line: Would you mind telling me what pIC50 value was observed for `GIDPNIRTGV` ?
Response line: 6.14

Prompt line: Would you mind telling me what pIC50 value was observed for `SLLAPGAKQNV` ?
Response line: 6.29

* * *

target: HLA B*40:01 (purified MHC class I) (Homo sapiens, UniProt P01889, A65T/A93T/A95T/D138N/D98Y/E176V/E69K/N87E/Q56L/Q94N/R180L/S121R/S35A/S48T/T167S/V36M/W171L/Y33H/Y91S)
assay comment: In vitro radiolabeled competitive HLA binding assay
No end group written: not given here.
quantity name: pIC50
Notebook: values listed as pIC50 are -log10 of the concentration (mol/L).

Prompt line: Would you mind telling me what pIC50 value was observed for `LEDRDRSEL` ?
Response line: 6.37

Values from paper PMC3345099
